protocol description: clinical pharmacokinetics of cobimetinib
condition set: human, in vivo, oral
experimental readout: bioavailability (%)
Please state the figure in %; there is no need to write the unit.

Which bioavailability value is on record for O=C(c1ccc(F)c(F)c1Nc1ccc(I)cc1F)N1CC(O)([C@@H]2CCCCN2)C1 [Cobimetinib] ?
45.9
